- Test system: Giardia WB
- MEASUREMENT_NOTES: Giardia viability (ATP content) assay in 1536-well format
- Type: cell-based, Giardia lamblia
- CONDITION_INFO: percent reduction in ATP levels compared with 38.3 mM Mnz at maximal compound concentration
Examples of compounds with documented Giardia WB Efficacy follow.
Your answer is read as %, so omit the unit and give the number.

1. N#Cc1cc([N+](=O)[O-])c2sc(C(N)=O)[n+]([O-])c2c1; 72.3

// query I have this compound here, O=[N+]([O-])c1ccc(/C=N/O)o1 , and I need its recorded Giardia WB Efficacy.
// result 97.1

// query Param item: NC(=O)c1cc(N2CC2)c([N+](=O)[O-])cc1[N+](=O)[O-]
// result 96.4

// query Param item: O=[N+]([O-])c1ccc([As](=O)(O)O)cc1
// result 97.0

* * *

- Tested on: CHO cells
- MEASUREMENT_NOTES: CHO cell cytotoxicity assay in 1536-well format (ATP content counter-screen)
- Type: cell-based, Chinese hamster
- CONDITION_INFO: Cricetulus griseus, CHO; concentration at which 50% of DMSO control ATP levels are detected; 48 hours
- Method: For the viability assay in 1536-well format, 2 μL media was dispensed per well into 1536-well white solid-bottom plates using Multidrop Combi dispenser. Subsequently, 23 nL/well compound solutions or DMSO controls were dispensed to the assay plates via a pintool workstation. […] Subsequently, ATP content was measured following the addition of 4 μL/well of ATPLite reagent and a 20 min incubation on a ViewLux plate reader. […]
Classify: TRUE when IC50 is strictly less than 400 nM; FALSE when IC50 is not.

Check out these entries, answers already filled in.
1) COC(=O)Nc1nc2ccc(C(=O)c3cccs3)cc2[nH]1 [Nocodazole]; TRUE
2) Oc1cc(O)cc(/C=C/c2ccc(O)c(O)c2)c1 [Piceatannol]; FALSE

// query Does the reported IC50 of CCN(CC)C(=S)SSC(=S)N(CC)CC [Disulfiram] stay below 400 nM?
// result TRUE

// query Param item: COc1cc2c(cc1O)CCN[C@]21CS[C@H]2c3c(OC(C)=O)c(C)c4c(c3[C@H](COC1=O)N1C2[C@H]2c3c(cc(C)c(OC)c3O)C[C@@H]([C@@H]1O)N2C)OCO4 (stereo partly shown) [Ecteinascidin 743]
// result TRUE

// query Param item: Nc1ncn([C@H]2C[C@H](O)[C@@H](CO)O2)c(=O)n1 [Decitabine, 5-Aza-2′-deoxycytidine]
// result FALSE

// query Param item: c1ccc2c(c1)[I+]c1ccccc1-2 [Diphenylene- iodonium chloride, diphenyleneiodonium chloride]
// result FALSE

// query Param item: N[C@H](C(=O)O)[C@@H]1CC(Cl)=NO1 [Acivicin]
// result FALSE

* * *

Examples of compounds with documented pIC50 follow.
- System: CHO cells
- MEASUREMENT_NOTES: CHO cell cytotoxicity assay in 1536-well format (ATP content counter-screen)
- Format: cell-based, Chinese hamster
- CONDITION_INFO: Cricetulus griseus, CHO; concentration at which 50% of DMSO control ATP levels are detected; 48 hours
pIC50 here is simply -log10 of the concentration when that concentration is written in mol/L.

1. COC(=O)[C@H]1[C@H]2C[C@@H]3c4[nH]c5ccccc5c4CCN3C[C@H]2C[C@@H](OC(=O)c2cc(OC)c(OC)c(OC)c2)[C@@H]1OC [Deserpidine]; 6.55

Next, consider the following compound.
// query I have this compound here, CC(C)C[C@H](NC(=O)[C@H](Cc1ccccc1)NC(=O)c1cnccn1)B(O)O [Bortezomib (S,S), Bortezomib] , and I need its recorded pIC50.
// result 7.70

Data provenance: patent US9173898B2
